Test system: 786-0
Measurement notes: NCI tumour cell line growth inhibition, 48 h
The source made the active and inactive calls. No stated cut-off is given here; in the data, active = GI50 up to about 1.1 µM and inactive = higher.
Possible outcomes: active, inactive

| Compound | Category label |
| --- | --- |
| CC(=O)N1c2ccccc2C23CCN(C)CC4C(C)OCC(C4CC2=O)C13 (configuration not stated) | inactive |
| CN(C)C(=S)/N=c1\ssc(=S)n1Cc1cccnc1 | inactive |
| CCO/C(=N/S(=O)(=O)C(F)(F)F)N(C(C)C)C(C)C | inactive |
| C[C@]12OC(=O)[C@]3(O)CC[C@H]4[C@@H](C[C@@H](O)[C@@]5(Cl)CC=CC(=O)[C@]45C)[C@]45OCC6C(=O)O[C@@H]1C[C@@]6(C)[C@H](C4=O)[C@@]32O5 (some centres not stated) | active |
| COC1CCC(OC)C(C2(C3CC(OC)CCC3OC)OC(=O)c3ccccc32)C1 (configuration not stated) | inactive |
| O=C1/C(=C\c2ccc([N+](=O)[O-])o2)SC2NC(COc3ccc(Cl)cc3)=NN12 (configuration not stated) | inactive |
| CN(C)CCCc1c[nH]c2ccccc12 | inactive |
| C/C(=N\[N+](C)(C)C)c1ccc(C)c(C)c1 | inactive |
| CN1N=CSC12C(=O)N(c1ccccc1)C(=O)N2c1ccccc1 (configuration not stated) | inactive |
| COc1cccc(N2N=C3c4ccccc4-n4c(nc5ccccc54)C3C2N)c1 (configuration not stated) | inactive |
| Cc1ccc(/C=C/C(=O)c2c([O-])on[n+]2-c2ccccc2)cc1 | inactive |
| CCC(=O)O[C@H]1CC[C@H]2[C@@H]3CCC4=C/C(=N/OC(=O)c5cccc6cc7ccccc7nc56)CC[C@]4(C)[C@H]3CC[C@]12C | inactive |
| CN(C)c1ccc(C2=C([O-])c3cc(-[n+]4ccccc4)ccc3C2=O)cc1 | inactive |
| COc1nc(C(=O)O)c(Cl)c(OC)c1Cl | inactive |
| Cc1c(/C=N/NC(=S)Nc2ccc([N+](=O)[O-])cc2)c(=O)n(-c2ccccc2)n1C | inactive |
| CCOC(=O)CO/N=C\C1=CC(=O)C2CC1C2(C)C (configuration not stated) | inactive |
| C=CC[C@@H]1C=C[C@@H](C(=O)OC)n2c(=O)n(-c3ccccc3)c(=O)n21 | inactive |
| N=C1c2ccccc2C(=O)c2c(NCCNCCO)ccc(O)c21 | inactive |
| COc1ccc2oc(=O)c(CC=C(C)C)c(O)c2c1C | inactive |
| C[n+]1c(-c2ccc(/C=N/NC(=N)N/N=C/c3ccc(-c4cn5cc(Cl)ccc5[n+]4C)cc3)cc2)cn2cc(Cl)ccc21 | inactive |
| COc1ccc(N(C)CN(C)c2nc(N(C)C)nc(N(C)C)n2)cc1 | inactive |
| COc1cc(C2c3cc4c(cc3OC(NN)C2C)OCO4)cc(OC)c1OC (configuration not stated) | active |
| COC(=O)[C@@H]1c2c(oc3cc(CO)cc(O)c3c2=O)C=C[C@H]1O | inactive |
| COC(=O)/N=C(\NC(=O)OC)Nc1ccc(Oc2ccccc2)cc1NC=O | active |
| Cc1cc(C(O)CNC(C)CCn2cnc3c2c(=O)n(C)c(=O)n3C)ccc1O (configuration not stated) | inactive |
| Nc1ncnc2c1ncn2[C@H]1C=C[C@@H](NO)C1 | inactive |
| CC(C)C1(NC(=O)C2CC3c4cccc5[nH]cc(c45)CC3N(C)C2)OC2(O)C3CCCN3C(=O)C(Cc3ccccc3)N2C1=O (configuration not stated) | inactive |
| CC1CC(N)=Nc2ccccc2N1 (configuration not stated) | inactive |
| COc1ccc(/C=C/C(=O)c2sc(NC(=S)NC(=O)c3ccccc3F)nc2C)cc1OC | inactive |
| CCCCSC1CCSc2c1ccc1ccccc21 (configuration not stated) | inactive |
| Cc1n(Cc2ccccc2)c2c([n+]1C)C(=O)c1ccccc1C2=O | active |
| C/C(=N\O)c1ccc(Nc2nc3ccccc3c3occc23)cc1 | inactive |
| O=C(OC1CC(n2cc(F)c(=O)[nH]c2=O)OC1CSC(=O)c1ccccc1)c1ccccc1 (configuration not stated) | inactive |
| CSc1nc(O)c(C#N)c(-c2ccc(Cl)cc2)n1 | inactive |
| O=C(N/N=C/c1c(-c2ccccc2)no[n+]1[O-])N1CCOCC1 | inactive |
| O=C1NC2C(O)CCCCC2C12CCCCC2 (configuration not stated) | inactive |
| O[C@H]1[C@H]2[C@H](O)C[C@H](CCOCc3ccccc3)CN2C[C@H]1O | inactive |
| O=C1C=C(Nc2cccnc2)c2ccccc2/C1=N/O | inactive |
| COc1ccc(-c2oc3cc(OC)c(OC)c(O)c3c(=O)c2OC)cc1 | inactive |
| Cc1nsc2cc(Cl)n(C)c(=O)c12 | inactive |
| COc1cc(C2c3cc4c(cc3OC(N3CCNCC3)C2C)OCO4)cc(OC)c1OC (configuration not stated) | active |
| NNC(=O)C(=O)NN=C(C(Cl)(Cl)CO)C(Cl)(Cl)CO | inactive |

====

Where a SMILES comes first, the peptide text is derived from it. The star is where a group is joined. CH2Cl = ClC*
Consider compounds characterized by their log10(GI50) with HCT-15.
Quantity measured: log10(GI50) (log10 of the value in µM)

| Compound | Test result |
| --- | --- |
| CCCCC/N=C/c1c(O)c(O)c(C(C)C)c2cc(C)c(-c3c(C)cc4c(C(C)C)c(O)c(O)c(/C=N/CCCCC)c4c3O)c(O)c12 | 0.77 |
| CN(C)c1ccc2nc3c(C(=O)O)cc(O)c(O)c3[o+]c2c1 | 1.57 |
| CC(=O)NC(CC(C)C)C(=O)NC(Cc1ccccc1)C(=O)CCl (stereo not drawn) (Ac-Leu-Phe-CH2Cl; configuration not given here) | 0.50 |
| [O-][S+]1SC(=S)C2C=CC=CC21 (stereo not given) | 1.61 |
| COC(=O)C(=Cc1cc(OC)ccc1OC)C(=O)OC | 1.40 |
| CC(C)C1(NC(=O)C2CC3c4cccc5[nH]cc(c45)CC3N(C)C2)OC2(O)C3CCCN3C(=O)C(Cc3ccccc3)N2C1=O (stereo not given) | 1.37 |
| CC(C)(C)c1cc(OCc2nnc3sc(Cc4ccccc4)nn23)c(Cl)cc1OCc1nnc2sc(Cc3ccccc3)nn12 | 1.52 |
| COc1cc(/C=C/c2ccc(Br)cc2)cc(OC)c1OC | 0.85 |
| FC(F)(F)c1nc(-c2ccccc2)oc1Sc1nnc(Sc2oc(-c3ccccc3)nc2C(F)(F)F)s1 | 1.40 |
| CC1=C(C#N)C(=C(C#N)C#N)OC1(C)Cc1ccccc1 (stereo not given) | 1.37 |

====

Tested on: A498
Measurement notes: NCI tumour cell line growth inhibition, 48 h
The source made the active and inactive calls. Rule as the data show it: active = GI50 up to about 1.1 µM and inactive = higher.
Below is a list of entries, each paired with its recorded GI50 value.

| Compound | Measured on | GI50 |
| --- | --- | --- |
| CC(C)C(=O)Oc1cc2c(=O)oc3c(OC(=O)C(C)C)c(OC(=O)C(C)C)cc4c(=O)oc(c1OC(=O)C(C)C)c2c34 | A498 | > 100 µM (inactive) |
| CC12CCC(=O)N1c1cc([N+](=O)[O-])ccc1N2 (centres undefined) | A498 | > 100 µM (inactive) |
| COC1=CC(=O)C2C(C1=O)[C@@H]1c3ccccc3C[C@H]21 (some centres undefined) | A498 | > 100 µM (inactive) |
| Oc1ccc2c3c1OC1c4[nH]c5c(c4CC4(O)C(C2)N(CC2CC2)CC[C@]314)CC1(O)C2Cc3ccc(O)c4c3[C@@]1(CCN2CC1CC1)C5O4 (some centres undefined) | A498 | 17.5 µM (inactive) |
| COc1ccc(N2C(=O)CSC2c2cc(OC)c(OC)c(OC)c2)cc1 (centres undefined) | A498 | 29 µM (inactive) |
| O=C1C=C2C(=NC34CCCCC3C(c3ccccc3)C3=C(c5ccccc5CC3)N24)c2ccccc21 (centres undefined) | A498 | > 10 µM (inactive) |
| Cn1c2ccccc2c(=O)c2c(O)cc3c(c21)C=CC1(CCCC1)O3 | A498 | > 100 µM (inactive) |
| NNC(=O)CNC(=O)c1ccc(Cl)cc1Cl | A498 | > 100 µM (inactive) |
| COc1cc(/C=C/c2ccc(Br)cc2)cc(OC)c1OC | A498 | 6.71 µM (inactive) |

====

Below is a list of entries, each paired with its recorded GI50 value.
Tested on: OVCAR-5
Measurement notes: NCI tumour cell line growth inhibition, 48 h
Activity calls are given as the source filed them. Rule as the data show it: active = GI50 up to about 1.1 µM and inactive = higher.

| Molecule | Measured on | GI50 |
| --- | --- | --- |
| CCOC(=O)c1sc2nc1CSc1sc(=S)sc1SCc1nc(sc1C(=O)OCC)-c1nc(c(C(=O)OCC)s1)CSc1sc(=S)sc1SCc1nc-2sc1C(=O)OCC | OVCAR-5 | > 10 µM (inactive) |
| C[C@]12OC(=O)[C@]3(O)CC[C@H]4[C@@H](C[C@@H](O)[C@@]5(Cl)CC=CC(=O)[C@]45C)[C@]45OCC6C(=O)O[C@@H]1C[C@@]6(C)[C@H](C4=O)[C@@]32O5 (some centres undefined) | OVCAR-5 | 1.4 µM (inactive) |
| COc1cc(/C=C/c2ccc(Br)cc2)cc(OC)c1OC | OVCAR-5 | 16.6 µM (inactive) |
| CN1C[C@@H]2CC(=O)CC[C@@H]2C[C@H]1C#N | OVCAR-5 | > 100 µM (inactive) |
| CCOC(=O)C1S/C(=N\c2cccc(Cl)c2C)N=C1C (centres undefined) | OVCAR-5 | 18.7 µM (inactive) |
| C=C(Cl)C(Br)(CBr)CCC(Br)C(C)(C)Br (centres undefined) | OVCAR-5 | > 10 µM (inactive) |
| CC/C=C/C(=O)CC(O)(C(F)(F)F)C(F)(F)F | OVCAR-5 | > 100 µM (inactive) |
| CC(C)C(=O)Oc1cc2c(=O)oc3c(OC(=O)C(C)C)c(OC(=O)C(C)C)cc4c(=O)oc(c1OC(=O)C(C)C)c2c34 | OVCAR-5 | > 100 µM (inactive) |
| COC(=O)/N=C(\NC(=O)OC)Nc1ccc(Oc2ccccc2)cc1NC=O | OVCAR-5 | > 100 µM (inactive) |
